# protocol-notes: chemical genetic growth profiling, strain panel (AID 1159580);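 also: tested at 20 µM; growth read once vehicle control cultures reached saturation at 30 °C; 1 = growth at the plate median or of vehicle wells; lower values mean less growth of the strain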
# assay-setup: S. cerevisiae deletion strains, growth OD, locus YDR195W, strain ref2
In all, about 5,500 compounds went through this assay and about 2,000 (36%) were called active. Another 18% or so got no clear call; they are omitted. This is one part of the list.
Known normalized growth of a selection of compounds

Examples from the recorded data:
compound	experimental-result
OC[C@H]1O[C@@H](Oc2ccc(O)cc2)[C@H](O)[C@@H](O)[C@@H]1O	1 (inactive)
CC(=CC1CCC(C)C2C1=C(C)CC2O)C(=O)O (centres undefined)	1.02 (inactive)
CC12CCC(O)CC1CCc1ccccc12 (centres undefined)	1 (inactive)
CC(=CC1CCC(C)C2CCC(C)=C12)C(=O)O (centres undefined)	1.12 (inactive)
O=C1c2ccccc2C(=O)c2ccccc21	1.24 [resistant] (active)

Input line: What value of normalized growth has been recorded for this entry: Cc1cc2nc3c(=O)[nH]c(=O)nc-3n(CC(O)C(O)C(O)CO)c2cc1C (centres undefined)
Output line: 1.01 (inactive)

Input line: Ok, now "CC(=O)CCCCn1c(=O)c2c(ncn2C)n(C)c1=O"
Output line: 1.02 (inactive)

Input line: Ok, now "Cn1c(=O)[nH]c2nc[nH]c2c1=O"
Output line: 0.966 (inactive)

Input line: Ok, now CC(=O)OC1CCC2(O)CC1(C)CCC1C2CC1(C)C (centres undefined)
Output line: 1.01 (inactive)

Input line: Ok, now "C=CC[C@@H]1/C=C(\C)C[C@H](C)C[C@H](OC)[C@H]2O[C@@](O)(C(=O)C(=O)N3CCCC[C@H]3C(=O)O[C@H](/C(C)=C/[C@@H]3CC[C@@H](O)[C@H](OC)C3)[C@H](C)[C@@H](O)CC1=O)[C@H](C)C[C@@H]2OC"
Output line: 0.773 (active)

Input line: Ok, now "CNC(C)(C)Cc1ccccc1"
Output line: 1.02 (inactive)

Input line: Ok, now "CCCCCC/C=C\CCCCCCCc1cccc(O)c1C(=O)O"
Output line: 0.975 (inactive)

Input line: Ok, now "O=C(/C=C/c1ccc(O)cc1)c1ccccc1O"
Output line: 1.15 [resistant] (active)

Input line: Ok, now "O=C(/C=C/c1ccccc1)c1ccc(O[C@@H]2O[C@H](CO)[C@@H](O)[C@H](O)[C@H]2O)cc1O"
Output line: 1 (inactive)

====

Known normalized growth of a selection of compounds
# protocol-notes: chemical genetic growth profiling, strain panel (AID 1159580)
# assay-setup: S. cerevisiae deletion strains, growth OD, locus YKR091W, strain srl3, stronger effect = lower value
The whole screen tested about 5,500 compounds, of which about 2,000 (36%) were called active. About 18% were inconclusive and are not listed. Some of the results follow.
# print the numeric value only

Examples from the recorded data:
compound	normalized growth
CC(=O)NC1C(O)OC(COS(=O)(=O)O)C(OC2OC(C(=O)O)C(OC3OC(CO)C(OC4OC(C(=O)O)C(O)C(O)C4OS(=O)(=O)O)C(OS(=O)(=O)O)C3NS(=O)(=O)O)C(O)C2OS(=O)(=O)O)C1O (stereo not drawn)	0.984
CC(=O)OC1CCC2(O)CC1(C)CCC1C2CC1(C)C (stereo not drawn)	1.02
NC(Cc1ccc(Cl)cc1)C(=O)O (stereo not drawn)	0.993
CNC(C)[C@@H]1CC[C@@H](N)[C@@H](OC2[C@@H](N)C[C@@H](N)[C@H](OC3OC[C@](C)(O)[C@H](NC)[C@H]3O)[C@H]2O)O1 (stereo partly drawn)	0.986
CC(C)c1cc2c(c(O)c1O)[C@@]1(C(=O)O)CCCC(C)(C)C1CC2 (stereo partly drawn)	0.988
CC(=O)OC1CCC23CC1(C)CCC2C(C)(C)CC3OC(C)=O (stereo not drawn)	0.981

Input line: What value of normalized growth has been recorded for this entry: "CC(=O)NS(=O)(=O)c1ccc(N)cc1"
Output line: 1.01

Input line: Ok, now "CC(=O)c1c(O)cc(O)cc1O"
Output line: 0.988

Input line: Ok, now CCC1(C2=NCCN2)Cc2ccccc2O1 (stereo not drawn)
Output line: 1

Input line: Ok, now C[N+]12CCC(CC1)C(OC(=O)C(O)(c1ccccc1)c1ccccc1)C2 (stereo not drawn)
Output line: 0.972

Input line: Ok, now COC(=O)C[C@H]1C(C)(C)[C@@H](OC(C)=O)[C@@H]2CC3=C4CC(=O)O[C@@H](c5ccoc5)[C@]4(C)CCC3[C@@]1(C)C2=O (stereo partly drawn)
Output line: 0.996

Input line: Ok, now CC(=O)OC[C@@]1(O)C[C@@]23CCC4c5ccoc5CC[C@]4(C)C2CC[C@@H]1C3 (stereo partly drawn)
Output line: 1

Input line: Ok, now "O=C(CCc1ccc(O)cc1)c1c(O)cc(O)cc1O"
Output line: 1.01

====

# protocol-notes: chemical genetic growth profiling, strain panel (AID 1159580);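 also: tested at 20 µM; growth read once vehicle control cultures reached saturation at 30 °C; 1 = growth at the plate median or of vehicle wells; lower values mean less growth of the strain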
# assay-setup: S. cerevisiae deletion strains, growth OD, locus YMR058W, strain fet3
Screen size: about 5,500 compounds; about 2,000 (36%) were called active. About 18% were inconclusive and are not listed. Rule as the data show it: active = normalized growth mostly below about 0.91 (no sharp cut-off); inconclusive = no clear call, values can overlap the other calls; inactive = mostly above about 0.92. This is one part of the list.
Classes to choose from: active, inactive

Record excerpt, results attached:
compound	assigned-category
O=C1C=CC(=O)c2c(O)c(Cl)c(Cl)c(O)c21	active
COc1cc(O)c2c(c1)C(=O)c1cc(C)cc(O)c1C2=O	inactive
O=c1c(O)c(-c2ccc(O)cc2)oc2ccccc12	active
CC(C)[C@@H]1CC[C@@H](C)C[C@H]1OC(=O)c1ccccc1	inactive
CC(C)C1CCC(C(=O)N[C@@H](Cc2ccccc2)C(=O)O)CC1 (stereo partly drawn)	inactive

Input line: Given "CC(C)N1C(=O)c2ccccc2NS1(=O)=O" , state the outcome it received in this test.
Output line: inactive

Input line: Ok, now COCC1=C(C(=O)OC(C)OC(=O)OC(C)C)N2C(=O)[C@@H](NC(=O)/C(=N\OC)c3csc(N)n3)[C@H]2SC1 (stereo partly drawn)
Output line: inactive

Input line: Ok, now "COc1ccc(-c2c(O)c3c(OC)c4c(cc3oc2=O)OC(C)(C)C=C4)cc1"
Output line: inactive

Input line: Ok, now CC(=O)OC[C@@]1(O)C[C@@]23CCC4c5ccoc5CC[C@]4(C)C2CC[C@@H]1C3 (stereo partly drawn)
Output line: inactive

Input line: Ok, now "NC(=NCCCCCCN=C(N)N=C(N)Nc1ccc(Cl)cc1)N=C(N)Nc1ccc(Cl)cc1"
Output line: active

Input line: Ok, now CNC(C)[C@@H]1CC[C@@H](N)[C@@H](OC2[C@@H](N)C[C@@H](N)[C@H](OC3OC[C@](C)(O)[C@H](NC)[C@H]3O)[C@H]2O)O1 (stereo partly drawn)
Output line: inactive

Input line: Ok, now "O=C(/C=C/c1ccccc1)c1ccc(O)cc1O"
Output line: active

Input line: Ok, now "CON"
Output line: inactive

Input line: Ok, now CC12CCC(O)CC1CCc1ccccc12 (stereo not drawn)
Output line: inactive

Input line: Ok, now "CC(C)[C@@H]1CC[C@@H](C)CC1=O"
Output line: inactive

====

# protocol-notes: chemical genetic growth profiling, strain panel (AID 1159580);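 also: tested at 20 µM; growth read once vehicle control cultures reached saturation at 30 °C; 1 = growth at the plate median or of vehicle wells; lower values mean less growth of the strain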
# assay-setup: S. cerevisiae deletion strains, growth OD, locus YHR200W, strain rpn10, stronger effect = lower value
Out of some 5,500 compounds screened, about 2,000 (36%) were called active. About 18% were inconclusive and are not listed. This is one part of the list.
endpoint-label: normalized growth
# print the numeric value only

compound	normalized growth
NS(=O)(=O)c1cc2c(cc1Cl)NCNS2(=O)=O	1

Input line: What value of normalized growth has been recorded for this entry: "O=C1C=C(O)c2ccccc2C1=O"
Output line: 0.962

Input line: Ok, now "CN(C)CCC[C@@]1(c2ccc(F)cc2)OCc2cc(C#N)ccc21"
Output line: 1.02

Input line: Ok, now COc1ccccc1OCC(O)COC(N)=O (configuration not stated)
Output line: 0.985

Input line: Ok, now "CC(=O)OCC1=C(C(=O)O)N2C(=O)[C@@H](NC(=O)CSc3ccncc3)[C@H]2SC1"
Output line: 0.984

Input line: Ok, now "CC(C)[C@@H]1CC[C@@H](C)CC1=O"
Output line: 1.01

Input line: Ok, now "COc1cc(Cc2cnc(N)nc2N)cc(OC)c1OC"
Output line: 0.989

====

# protocol-notes: chemical genetic growth profiling, strain panel (AID 1159580);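 also: tested at 20 µM; growth read once vehicle control cultures reached saturation at 30 °C; 1 = growth at the plate median or of vehicle wells; lower values mean less growth of the strain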
# assay-setup: S. cerevisiae deletion strains, growth OD, locus YGL078C, strain dbp3
About 2,000 (36%) of roughly 5,500 compounds were called active. Inconclusive results (about 18%) are left out. Cut-off read from the data, not from the text of the source: active = normalized growth mostly below about 0.91 (no sharp cut-off); inconclusive = no clear call, values can overlap the other calls; inactive = mostly above about 0.92. The list shows a part of the results.
Classes to choose from: label 1 for active, label 0 for inactive

Input line: Given "O=c1c(O)c(-c2ccccc2)oc2ccc3occc3c12" , state the outcome it received in this test.
Output line: label 1

Input line: Ok, now CNC(C)[C@@H]1CC[C@@H](N)[C@@H](OC2[C@@H](N)C[C@@H](N)[C@H](OC3OC[C@](C)(O)[C@H](NC)[C@H]3O)[C@H]2O)O1 (some centres not stated)
Output line: label 0

Input line: Ok, now C[N+]1(C)CCCC(OC(=O)C(O)(c2ccccc2)c2ccccc2)C1 (configuration not stated)
Output line: label 0

Input line: Ok, now ClC1C(Cl)C(Cl)C(Cl)C(Cl)C1Cl (configuration not stated)
Output line: label 0
